These entries and their values trace back to patent US10112949B2.

- measured_on: human mGlu2 receptor (Homo sapiens, UniProt Q14416)
- Sequence (Q14416 19-872): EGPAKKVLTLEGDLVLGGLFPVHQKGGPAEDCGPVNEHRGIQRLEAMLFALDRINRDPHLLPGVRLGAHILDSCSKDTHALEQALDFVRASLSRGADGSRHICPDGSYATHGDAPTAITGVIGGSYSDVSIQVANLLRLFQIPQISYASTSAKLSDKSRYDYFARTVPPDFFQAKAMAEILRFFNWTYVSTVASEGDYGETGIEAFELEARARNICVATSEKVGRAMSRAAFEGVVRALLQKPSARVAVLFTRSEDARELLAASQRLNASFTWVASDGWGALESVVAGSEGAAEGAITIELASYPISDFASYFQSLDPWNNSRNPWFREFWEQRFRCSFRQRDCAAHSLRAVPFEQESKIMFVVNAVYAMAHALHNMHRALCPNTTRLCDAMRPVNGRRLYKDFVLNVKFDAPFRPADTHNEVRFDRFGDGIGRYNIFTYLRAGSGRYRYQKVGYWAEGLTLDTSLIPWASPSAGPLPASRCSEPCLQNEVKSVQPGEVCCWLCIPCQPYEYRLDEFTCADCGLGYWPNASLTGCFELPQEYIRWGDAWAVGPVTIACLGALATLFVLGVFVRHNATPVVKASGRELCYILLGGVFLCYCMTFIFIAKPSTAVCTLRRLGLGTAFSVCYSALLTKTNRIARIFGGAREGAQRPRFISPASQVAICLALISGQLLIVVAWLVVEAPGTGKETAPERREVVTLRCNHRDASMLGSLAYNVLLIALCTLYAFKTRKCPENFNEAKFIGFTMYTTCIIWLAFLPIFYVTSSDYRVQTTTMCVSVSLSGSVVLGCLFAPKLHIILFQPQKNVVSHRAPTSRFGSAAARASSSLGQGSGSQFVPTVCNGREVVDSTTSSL
- method_description: [35S]GTPγS binding assay, negative allosteric modulation of mGluR2;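 also: membranes from CHO cells expressing the receptor, compound with glutamate near EC80 (60 µM), 30 min preincubation then 30 min label uptake at 30 °C, percent of control glutamate response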
readout_name: IC50 (nM)

- compound: "C[C@H]1CN(c2ccc(C(F)(F)F)cn2)C(=O)c2c(C#Cc3ccc(N)nc3)cnn21 [compound 4]"
  IC50 / nM: 2.4

I. C[C@H]1CN(c2ccc(C(F)(F)F)cc2)C(=O)c2c(C#Cc3cnc(N)cc3CF)cnn21 [compound 23]
II. C[C@H]1CN(c2ccc(C(F)(F)F)cc2)C(=O)c2c(C#Cc3cncc(CO)c3)cnn21 [compound 28]
III. CNc1ncccc1C#Cc1cnn2c1C(=O)N(c1ccc(C(F)(F)F)cc1)C[C@@H]2C [compound 24]
Order the items by recorded IC50; the first position goes to the largest value. Please express your ranking as an ordered list of the labels.
II, III, I
